Hi there, I'd appreciate the recorded Bliss excess for every entry that follows.
- Tested on: HCC-78 (Lung Adenocarcinoma);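 note: after 72 h of two-drug dosing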
- PROTOCOL_TEXT: Bliss excess, mean over the matrix (fraction); higher = more synergy
Answers are plain numbers.

Worked cases, Bliss excess given:
Cn1cnc2c(F)c(Nc3ccc(Br)cc3Cl)c(C(=O)NOCCO)cc21 [Selumetinib] + C[C@@H]1COCCN1C2=NC(=NC(=C2)C3(CC3)[S@](=N)(=O)C)C4=C5C=CNC5=NC=C4 [AZD6738] (first compound max 10 µM, 7x7, partner max 10 µM) = -0.0254
O=C(c1cc(Cc2n[nH]c(=O)c3ccccc23)ccc1F)N1CCN(C(=O)C2CC2)CC1 [Olaparib] + COc1nnc2ccc(N3CCC(c4ccc(OCCN5CCN(C)C(=O)[C@H]5C)cc4)CC3)nn12 [AZD5153] (first compound max 10 µM, 7x7, partner max 1 µM) = -0.0169
NC1(C(=O)N[C@@H](CCO)c2ccc(Cl)cc2)CCN(c2ncnc3[nH]ccc23)CC1 [Capivasertib] + CC(C)n1c(=O)n(C)c2cnc3cc(F)c(-c4ccc(OCCCN5CCCCC5)nc4)cc3c21 [AZD1390] (first compound max 10 µM, 7x7, partner max 0.3 µM) = -0.0434
O=C(c1cc(Cc2n[nH]c(=O)c3ccccc23)ccc1F)N1CCN(C(=O)C2CC2)CC1 [Olaparib] + Cc1c2c(nn1C)CSCc1cc(n(C)n1)CSc1cc(c3ccccc3c1)OCCCc1c(C(=O)O)n(C)c3c-2c(Cl)ccc13 [AZD5991] (first compound max 10 µM, 7x7, partner max 1 µM) = -0.0244

For each of the compounds below, state Bliss excess.
1. O=C(c1cc(Cc2n[nH]c(=O)c3ccccc23)ccc1F)N1CCN(C(=O)C2CC2)CC1 [Olaparib] + CN(CC[C@H](CSC1=CC=CC=C1)NC2=C(C=C(C=C2)S(=O)(=O)NC(=O)C3=CC=C(C=C3)N4CCC(CC4)[C@H](C5=CC=CC=C5C6=CC=C(C=C6)Cl)O)S(=O)(=O)C(F)(F)F)CCO [AZD4320] (first compound max 10 µM, 7x7, partner max 1 µM)
2. CN(CCO)CC[C@H](CSc1ccccc1)Nc1ccc(S(=O)(=O)NC(=O)c2ccc(N3CCC([C@@H](O)c4ccccc4-c4ccc(Cl)cc4)CC3)cc2)cc1S(=O)(=O)C(F)(F)F [AZD4320] + Cc1cc2ncnn2cc1Nc1ncc2c(n1)n(C1CCOCC1)c(=O)n2C [AZD7648] (first compound max 1 µM, 7x7, partner max 10 µM)

1. -0.016
2. -0.0227
